# Test system: IgG1, monoclonal (Homo sapiens)
# Assay name: filter
# Stated conditions: 37.5 mM NaCl, 3.75 mM sodium citrate, pH 6.0
Result type: Ka (log10 Ka (M-1))
Note: the reply should be a number with no unit written.

Value of measured Ka (log10 Ka (M-1)) for the entry CCCTCCCTGGGCTTTTTTTGATTTTTCTTAA [RAD4] : 7.52

Value of measured Ka (log10 Ka (M-1)) for the entry TGGGCCGGTAACGGGTTACCGTAAGGTCCC [RAD10] : 7.04

Value of measured Ka (log10 Ka (M-1)) for the entry TTTTCGCGCGTTAACGCGCGAA [RAD16] : 6.87

----------
# System: IgG Fc fragment (Homo sapiens)
# Assay name: filter
# Stated conditions: 37.5 mM NaCl, 3.75 mM sodium citrate, pH 6.0
Result type: Ka (log10 Ka (M-1))

Here's what some known entries look like.
[
  {
    "Biopolymer sequence": "CCCTCCCTGGGCTTTTTTTGATTTTTCTTAA [RAD4]",
    "Result type": "Ka (log10 Ka (M-1))",
    "Observed result": 5.26
  },
  {
    "Biopolymer sequence": "CCTCTTCTTTTTCTTCTC [RAD20]",
    "Result type": "Ka (log10 Ka (M-1))",
    "Observed result": 5.96
  },
  {
    "Biopolymer sequence": "CCTCTTCTTTTTCTTCTCCTTTTTGGAGAAG [RAD2]",
    "Result type": "Ka (log10 Ka (M-1))",
    "Observed result": 5.86
  }
]

Then there is this sequence:
Value of measured Ka (log10 Ka (M-1)) for the entry CTCTCTCTTTTTCTCTCTCTTTTTGAGAGAG [RAD9] : 5.87

----------
# Test system: IgA, monoclonal (Homo sapiens)
# Assay name: filter
# Stated conditions: 37.5 mM NaCl, 3.75 mM sodium citrate, pH 6.0
This listing pairs sequences with measured Ka (log10 Ka (M-1)).
Note: the reply should be a number with no unit written.

[
  {
    "Biopolymer sequence": "TGGTTGGTTTTTGGAAGGATTTTTTCCTTCC [RAD3]",
    "Ka (log10 Ka (M-1))": 7.38
  },
  {
    "Biopolymer sequence": "GAGAGAGTTTTTGAGAGAGTTTTTCTCTCTC [RAD7]",
    "Ka (log10 Ka (M-1))": 7.33
  },
  {
    "Biopolymer sequence": "CCTTCCTTTGGAAGGTTG [RAD23]",
    "Ka (log10 Ka (M-1))": 6.38
  },
  {
    "Biopolymer sequence": "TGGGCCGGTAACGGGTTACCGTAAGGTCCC [RAD10]",
    "Ka (log10 Ka (M-1))": 6.92
  },
  {
    "Biopolymer sequence": "CCTCTTCTTTTTCTTCTCCTTTTTGGAGAAG [RAD2]",
    "Ka (log10 Ka (M-1))": 6.9
  }
]

The sequence CCTCTTCTTTTTCTTCTC [RAD20] on IgA, monoclonal (Homo sapiens): Ka (log10 Ka (M-1)) was 7.53

----------
# Test system: IgG3, monoclonal (Homo sapiens)
# Assay name: filter
# Stated conditions: 37.5 mM NaCl, 3.75 mM Na citrate, pH 6.0
Result type: Ka

Here's what some known entries look like.
[
  {
    "Biopolymer sequence": "TGGTTGGTTTTTGGAAGGATTTTTTCCTTCC [RAD3]",
    "Ka": "6.69 log10 M-1"
  },
  {
    "Biopolymer sequence": "TTTTCGCGCGTTAACGCGCGAA [RAD16]",
    "Ka": "6.31 log10 M-1"
  },
  {
    "Biopolymer sequence": "CCTTCCTTTGGAAGGTTG [RAD23]",
    "Ka": "5.62 log10 M-1"
  },
  {
    "Biopolymer sequence": "CTCTCTCTTTTTCTCTCTCTTTTTGAGAGAG [RAD9]",
    "Ka": "6.62 log10 M-1"
  }
]

Value of measured Ka for the entry CCTCTTCTTTTTCTTCTC [RAD20] : 6.84 log10 M-1

Value of measured Ka for the entry TTTTCGCGCGTACGCGCGCGAA [RAD15] : 6.22 log10 M-1

Value of measured Ka for the entry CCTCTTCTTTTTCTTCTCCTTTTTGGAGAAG [RAD2] : 6.64 log10 M-1

Value of measured Ka for the entry GAGAGAGTTTTTGAGAGAGTTTTTCTCTCTC [RAD7] : 6.74 log10 M-1

Value of measured Ka for the entry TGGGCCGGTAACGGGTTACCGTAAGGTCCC [RAD10] : 6.62 log10 M-1

----------
# Tested on: IgG4, monoclonal (Homo sapiens)
# Assay name: filter
# Stated conditions: 37.5 mM NaCl, 3.75 mM Na citrate, pH 6.0
This listing pairs sequences with measured Ka.

Here's what some known entries look like.
[
  {
    "Biopolymer sequence": "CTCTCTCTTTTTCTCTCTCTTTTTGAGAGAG [RAD9]",
    "Ka": "7.06 log10 M-1"
  },
  {
    "Biopolymer sequence": "CCTCTTCTTTTTCTTCTC [RAD20]",
    "Ka": "7.67 log10 M-1"
  },
  {
    "Biopolymer sequence": "TTTTCGCGCGTACGCGCGCGAA [RAD15]",
    "Ka": "6.13 log10 M-1"
  },
  {
    "Biopolymer sequence": "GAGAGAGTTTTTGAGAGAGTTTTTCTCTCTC [RAD7]",
    "Ka": "7.16 log10 M-1"
  },
  {
    "Biopolymer sequence": "CCTTCCTTTGGAAGGTTG [RAD23]",
    "Ka": "5.97 log10 M-1"
  },
  {
    "Biopolymer sequence": "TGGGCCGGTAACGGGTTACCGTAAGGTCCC [RAD10]",
    "Ka": "7 log10 M-1"
  }
]

Value of measured Ka for the entry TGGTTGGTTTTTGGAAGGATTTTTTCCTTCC [RAD3] : 7.2 log10 M-1

Value of measured Ka for the entry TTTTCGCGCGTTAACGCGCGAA [RAD16] : 6.54 log10 M-1

Value of measured Ka for the entry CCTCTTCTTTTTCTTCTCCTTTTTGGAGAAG [RAD2] : 7.08 log10 M-1

----------
# Test system: IgG, polyclonal (Mus musculus)
# Assay name: FP
# Stated conditions: 10 nM DNA, 1 uM IgG, PBS pH 7.0, 45 min
Tick label 1 if binding signal (% polarization change) is 20 or greater. Tick label 0 if binding signal (% polarization change) is less than 20.

Observe how each entry below is paired with its result.
[
  {
    "Biopolymer sequence": "TCCCTTTCCCTTTCCCTTTCCC [RAD28]",
    "Tgt": "IgG, polyclonal (Mus musculus)",
    "Assigned label": "label 1"
  },
  {
    "Biopolymer sequence": "TCCTCTTCTTTTTCTTCTC [RAD24]",
    "Tgt": "IgG, polyclonal (Mus musculus)",
    "Assigned label": "label 1"
  },
  {
    "Biopolymer sequence": "TCCTTTCCTTTCCTTTCCT [RAD27]",
    "Tgt": "IgG, polyclonal (Mus musculus)",
    "Assigned label": "label 1"
  },
  {
    "Biopolymer sequence": "GGAGGTGCTCCGAAAGGAACTCC [RAD30]",
    "Tgt": "IgG, polyclonal (Mus musculus)",
    "Assigned label": "label 0"
  },
  {
    "Biopolymer sequence": "TCTCTCTCTCTCTCTCTCT [RAD26]",
    "Tgt": "IgG, polyclonal (Mus musculus)",
    "Assigned label": "label 1"
  }
]

Does the reported binding signal (% polarization change) for AGGCCGCGCCCCCCGCGCCCACCGCCCCGGTGCC [RAD29] fall at or above the 20 mark?
label 0

Does the reported binding signal (% polarization change) for TTCCTTCCTTCCTTCCTTC [RAD25] fall at or above the 20 mark?
label 1

----------
# Test system: IgG2, monoclonal (Homo sapiens)
# Assay name: filter
# Stated conditions: 37.5 mM NaCl, 3.75 mM sodium citrate, pH 6.0
Result type: Ka (log10 Ka (M-1))

[
  {
    "Biopolymer sequence": "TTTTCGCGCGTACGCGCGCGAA [RAD15]",
    "Tgt": "IgG2, monoclonal (Homo sapiens)",
    "Ka (log10 Ka (M-1))": 6.18
  },
  {
    "Biopolymer sequence": "CCTCTTCTTTTTCTTCTC [RAD20]",
    "Tgt": "IgG2, monoclonal (Homo sapiens)",
    "Ka (log10 Ka (M-1))": 7.85
  },
  {
    "Biopolymer sequence": "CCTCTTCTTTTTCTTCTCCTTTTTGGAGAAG [RAD2]",
    "Tgt": "IgG2, monoclonal (Homo sapiens)",
    "Ka (log10 Ka (M-1))": 7.06
  },
  {
    "Biopolymer sequence": "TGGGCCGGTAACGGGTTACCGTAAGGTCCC [RAD10]",
    "Tgt": "IgG2, monoclonal (Homo sapiens)",
    "Ka (log10 Ka (M-1))": 7.01
  },
  {
    "Biopolymer sequence": "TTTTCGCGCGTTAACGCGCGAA [RAD16]",
    "Tgt": "IgG2, monoclonal (Homo sapiens)",
    "Ka (log10 Ka (M-1))": 6.11
  }
]

Value of measured Ka (log10 Ka (M-1)) for the entry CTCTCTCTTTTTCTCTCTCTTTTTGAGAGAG [RAD9] : 7.05

Value of measured Ka (log10 Ka (M-1)) for the entry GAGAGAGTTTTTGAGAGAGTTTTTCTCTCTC [RAD7] : 7.25

Value of measured Ka (log10 Ka (M-1)) for the entry CCTTCCTTTGGAAGGTTG [RAD23] : 6.86

Value of measured Ka (log10 Ka (M-1)) for the entry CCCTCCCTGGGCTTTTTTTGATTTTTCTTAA [RAD4] : 7.67

Value of measured Ka (log10 Ka (M-1)) for the entry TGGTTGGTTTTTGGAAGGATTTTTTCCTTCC [RAD3] : 7.36
